target: androgen receptor (Homo sapiens, UniProt P10275); test: Androgenic/antiandrogenic action by transactivation test (PC3 reporter cells); assay type: cell-based; design: expressed in transfected cells; host or cells: PC3 cells; settings: PC-3, read-out: Androgen receptor Antagonism efficacy
PARAMETER MEASURED: Emax (%)
Numbers only; they are read as %.

Below, each entry is followed by its recorded Emax result.
>  <COMPOUND STRING>
CC[C@@H]1CC2=CC(=O)CC[C@@H]2[C@H]2CC[C@@]3(CC)[C@@H]([C@@H]4C[C@@H]4[C@@]34C=CC(=O)O4)[C@H]12

>  <READING UNIT>
%

>  <Emax>
5

$$$$
>  <COMPOUND STRING>
C[C@]12CC[C@H]3[C@@H](C[C@@H](CO)C4=CC(=O)CC[C@@H]43)[C@@H]1[C@@H]1C[C@@H]1[C@@]21C=CC(=O)O1

>  <READING UNIT>
%

>  <Emax>
15.7

$$$$

// next item, Emax requested
Incoming: Answer with the recorded Emax of `C[C@]12CC[C@H]3[C@@H](CCC4=CC(=O)CC[C@@H]43)[C@@H]1[C@H]1C[C@H]1[C@@]21C=CC(=O)O1` only.
Outgoing: 61.7

---

Target: androgen receptor (Homo sapiens)
Sequence (P10275 1-920): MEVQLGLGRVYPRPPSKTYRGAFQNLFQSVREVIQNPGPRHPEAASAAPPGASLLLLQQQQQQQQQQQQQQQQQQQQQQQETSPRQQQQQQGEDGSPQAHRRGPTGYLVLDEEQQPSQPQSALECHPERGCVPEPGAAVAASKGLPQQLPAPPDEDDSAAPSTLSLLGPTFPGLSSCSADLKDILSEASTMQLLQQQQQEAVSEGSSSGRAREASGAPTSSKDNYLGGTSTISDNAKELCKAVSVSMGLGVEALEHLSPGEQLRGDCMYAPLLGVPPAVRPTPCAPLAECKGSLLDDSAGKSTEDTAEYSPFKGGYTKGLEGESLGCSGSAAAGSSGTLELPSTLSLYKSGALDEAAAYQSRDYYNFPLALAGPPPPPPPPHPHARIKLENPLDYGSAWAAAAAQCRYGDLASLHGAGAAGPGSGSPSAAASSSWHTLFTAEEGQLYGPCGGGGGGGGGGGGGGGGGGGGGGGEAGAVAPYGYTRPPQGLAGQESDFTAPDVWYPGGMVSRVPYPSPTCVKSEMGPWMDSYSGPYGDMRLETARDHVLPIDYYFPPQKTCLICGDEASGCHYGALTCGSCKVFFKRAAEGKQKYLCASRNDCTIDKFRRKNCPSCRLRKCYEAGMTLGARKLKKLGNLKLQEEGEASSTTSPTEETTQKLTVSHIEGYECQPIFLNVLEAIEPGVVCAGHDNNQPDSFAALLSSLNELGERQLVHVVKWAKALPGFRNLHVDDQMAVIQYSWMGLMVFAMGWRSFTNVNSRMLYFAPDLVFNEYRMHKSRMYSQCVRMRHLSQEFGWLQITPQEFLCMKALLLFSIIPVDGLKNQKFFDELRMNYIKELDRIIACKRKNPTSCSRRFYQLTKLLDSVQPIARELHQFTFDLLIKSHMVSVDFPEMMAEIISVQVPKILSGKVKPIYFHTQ
Assay: Androgenic/antiandrogenic action by transactivation test (PC3 reporter cells)
Format: cell-based
Set-up: expressed in transfected cells; host or cells: PC3 cells
Details: PC-3, read-out: Androgen receptor Antagonism efficacy
PARAMETER MEASURED: Emax (%)
Numbers only; they are read as %.

>  <MOLECULE>
CC[C@]12CC[C@H]3[C@@H](C[C@@H](CO)C4=CC(=O)CC[C@@H]43)[C@@H]1[C@@H]1C[C@@H]1[C@@]21C=CC(=O)O1 [Example 10]

>  <ASSAYED SYSTEM>
androgen receptor (Homo sapiens)

>  <Emax [%]>
15.6

$$$$
>  <MOLECULE>
CC[C@]12CC[C@H]3[C@@H](C=CC4=CC(=O)CC[C@@H]43)[C@@H]1[C@@H]1C[C@@H]1[C@@]21C=CC(=O)O1 [Example 3]

>  <ASSAYED SYSTEM>
androgen receptor (Homo sapiens)

>  <Emax [%]>
5

$$$$

// next item, Emax requested
Incoming: Tell me its Emax on androgen receptor (Homo sapiens): CC[C@@H]1CC2=CC(=O)CC[C@@H]2[C@H]2CC[C@@]3(C)[C@@H]([C@H]4C[C@H]4[C@@]34C=CC(=O)O4)[C@H]12 [Example 15A]
Outgoing: 5

---

Consider the following compounds and their measured Emax readings.
Target: androgen receptor (Homo sapiens, UniProt P10275)
Sequence (P10275 1-920): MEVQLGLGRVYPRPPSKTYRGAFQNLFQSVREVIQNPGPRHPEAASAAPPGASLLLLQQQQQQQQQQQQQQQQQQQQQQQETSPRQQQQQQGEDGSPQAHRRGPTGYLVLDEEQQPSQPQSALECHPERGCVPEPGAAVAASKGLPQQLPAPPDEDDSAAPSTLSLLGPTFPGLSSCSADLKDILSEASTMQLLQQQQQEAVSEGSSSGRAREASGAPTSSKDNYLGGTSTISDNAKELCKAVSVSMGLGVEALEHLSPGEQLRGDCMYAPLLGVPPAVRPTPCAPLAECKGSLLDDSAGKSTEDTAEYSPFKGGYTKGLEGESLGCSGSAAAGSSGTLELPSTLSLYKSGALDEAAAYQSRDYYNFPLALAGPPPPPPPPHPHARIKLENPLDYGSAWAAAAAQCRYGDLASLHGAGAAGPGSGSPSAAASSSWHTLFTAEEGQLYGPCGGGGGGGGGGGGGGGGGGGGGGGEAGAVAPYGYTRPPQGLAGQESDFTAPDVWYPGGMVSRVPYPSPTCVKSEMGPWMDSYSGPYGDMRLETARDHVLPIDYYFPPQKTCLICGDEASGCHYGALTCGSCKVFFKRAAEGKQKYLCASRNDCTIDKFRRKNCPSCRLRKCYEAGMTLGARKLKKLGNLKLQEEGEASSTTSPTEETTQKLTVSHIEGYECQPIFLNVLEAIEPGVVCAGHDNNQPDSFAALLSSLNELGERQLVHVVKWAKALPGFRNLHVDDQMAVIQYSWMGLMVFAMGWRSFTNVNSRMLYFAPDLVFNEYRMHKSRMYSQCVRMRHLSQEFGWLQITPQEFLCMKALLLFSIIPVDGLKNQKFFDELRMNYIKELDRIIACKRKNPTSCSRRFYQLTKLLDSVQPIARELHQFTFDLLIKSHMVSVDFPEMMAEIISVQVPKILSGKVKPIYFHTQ
Assay: Androgenic/antiandrogenic action by transactivation test (PC3 reporter cells)
Format: cell-based
Parameters: expressed in transfected cells; host or cells: PC3 cells
Details: PC-3, read-out: Androgen receptor Antagonism efficacy

Below, each entry is followed by its recorded Emax result.
>  <COMPOUND>
C[C@@H]1CC2=CC(=O)CC[C@@H]2[C@H]2CC[C@@]3(C)[C@@H]([C@@H]4C[C@@H]4[C@@]34C=CC(=O)O4)[C@@H]21 [Example 23A]

>  <ASSAYED SYSTEM>
androgen receptor (Homo sapiens, UniProt P10275)

>  <Emax>
5%

$$$$
>  <COMPOUND>
CC[C@]12CC[C@H]3[C@H]([C@@H]1[C@@H]1C[C@@H]1[C@@]21C=CC(=O)O1)[C@H](C)CC1=CC(=O)CC[C@@H]13

>  <ASSAYED SYSTEM>
androgen receptor (Homo sapiens, UniProt P10275)

>  <Emax>
5%

$$$$

Incoming: Answer with the recorded Emax of `C[C@]12CC[C@H]3[C@@H](C=CC4=CC(=O)CC[C@@H]43)[C@@H]1[C@H]1C[C@H]1[C@@]21C=CC(=O)O1` only.
Outgoing: 47.4%

---

Target: mineralocorticoid receptor (Homo sapiens)
Sequence (P08235 whole entry): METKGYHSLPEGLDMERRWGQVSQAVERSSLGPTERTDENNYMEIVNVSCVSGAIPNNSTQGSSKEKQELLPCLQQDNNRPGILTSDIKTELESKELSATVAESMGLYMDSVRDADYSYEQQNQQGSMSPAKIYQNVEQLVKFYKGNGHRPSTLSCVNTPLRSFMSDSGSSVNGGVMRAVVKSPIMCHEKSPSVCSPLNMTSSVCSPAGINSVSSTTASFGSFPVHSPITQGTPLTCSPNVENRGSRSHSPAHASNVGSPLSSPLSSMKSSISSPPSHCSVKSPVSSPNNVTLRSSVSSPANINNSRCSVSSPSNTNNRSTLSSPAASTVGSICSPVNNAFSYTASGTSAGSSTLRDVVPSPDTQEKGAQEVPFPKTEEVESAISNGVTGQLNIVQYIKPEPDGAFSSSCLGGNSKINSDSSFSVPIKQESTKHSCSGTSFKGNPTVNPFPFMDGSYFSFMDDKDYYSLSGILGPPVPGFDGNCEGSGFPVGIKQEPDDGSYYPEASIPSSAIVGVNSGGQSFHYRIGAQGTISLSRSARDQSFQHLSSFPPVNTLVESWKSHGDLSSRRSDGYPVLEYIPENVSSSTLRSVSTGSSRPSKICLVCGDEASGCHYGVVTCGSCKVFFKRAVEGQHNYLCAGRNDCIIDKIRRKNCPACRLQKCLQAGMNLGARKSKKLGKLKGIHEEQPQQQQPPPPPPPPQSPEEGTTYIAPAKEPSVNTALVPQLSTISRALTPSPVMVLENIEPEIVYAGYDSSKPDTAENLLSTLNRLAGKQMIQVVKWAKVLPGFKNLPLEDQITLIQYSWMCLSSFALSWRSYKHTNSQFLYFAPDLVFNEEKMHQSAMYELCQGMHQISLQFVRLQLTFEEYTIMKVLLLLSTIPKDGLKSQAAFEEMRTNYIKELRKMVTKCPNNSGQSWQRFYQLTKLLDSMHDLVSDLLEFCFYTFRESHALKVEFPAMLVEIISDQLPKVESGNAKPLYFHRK
Assay: Mineralocorticoid receptor binding test
Parameters: made in house; host or cells: Hi5 insect cells (cytosol)
Conditions: reference substance 3H-aldosterone, cytosol from MR-expressing insect cells (Hi5)
Method: Using cytosol from progesterone receptor-expressing insect cells (Hi5), competitive binding to the progesterone receptor was determined from the ability to displace ^3H-progesterone as reference substance from the receptor. 2. Mineralocorticoid Receptor Binding Test: The test was carried out as in 1, with the following modifications: cytosol from mineralocorticoid receptor-expressing insect cells (Hi5) was used, and the reference substance was ^3H-aldosterone.
Consider the following molecules and their measured Mineralocorticoid receptor (MR) Competition factor readings.
Provide a numeric answer; units are not to be included.

Below, each entry is followed by its recorded Mineralocorticoid receptor (MR) Competition factor result.
>  <MOLECULE>
C[C@]12CC[C@H]3[C@@H](CCC4=CC(=O)CC[C@@H]43)[C@@H]1[C@H]1C[C@H]1[C@@]21C=CC(=O)O1

>  <NUMERIC VALUE>
2.9

$$$$
>  <MOLECULE>
C[C@]12CC[C@H]3[C@H]([C@@H]1[C@H]1C[C@H]1[C@@]21C=CC(=O)O1)[C@H](C1CC1)CC1=CC(=O)CC[C@@H]13 [Example 17A]

>  <NUMERIC VALUE>
2.6

$$$$

// next item, Mineralocorticoid receptor (MR) Competition factor requested
Incoming: Tell me its Mineralocorticoid receptor (MR) Competition factor on mineralocorticoid receptor (Homo sapiens): `CC[C@]12CC[C@H]3[C@@H](C=CC4=CC(=O)CC[C@@H]43)[C@@H]1[C@@H]1C[C@@H]1[C@@]21C=CC(=O)O1`
Outgoing: 1.5
